Assay Notes: protein stability index of a GFP-peptide fusion (GPS, HEK-293T) (PSI 1-6); higher = more stable;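 note: 24-mer peptide tiles fused after GFP, lentivirally expressed, FACS-sorted into six equal bins by GFP/DsRed ratio, decoded by Illumina sequencing, PSI is the read-weighted mean bin number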
Measurement Conditions: treatment: MLN4924 1 uM, 8 h; c terminus: a fixed tail appended
Use 3 as the dividing line for protein stability index, with the line itself on the Condition met side and lower values as Condition not met.

Lookup: Say whether LRQQQDEAYLASLRADQEKERKKR [FAF2] shows protein stability index of 3 or more.
Found: Condition met

Lookup: Say whether LLYAQGLLAIQFLEFFYGIATATE [SLC19A2] shows protein stability index of 3 or more.
Found: Condition met

Lookup: Say whether RMGLMKANHVFFLLYLLHILLLDG [FADS1] shows protein stability index of 3 or more.
Found: Condition not met

Lookup: Say whether QNVHFHRSGSPTVPIKPPCIPNGK [CAMK2D] shows protein stability index of 3 or more.
Found: Condition met

Lookup: Say whether FLSLDIPIGELYGLSESSGPHTIS [ACSBG2] shows protein stability index of 3 or more.
Found: Condition not met

Lookup: Say whether SRTQEPSLGKQKVFIIRKSLLDEL [SOAT2] shows protein stability index of 3 or more.
Found: Condition not met

Lookup: Say whether LYLIAKRNRKLKCTFSLTHPANRS [SLC22A15] shows protein stability index of 3 or more.
Found: Condition not met

Lookup: Say whether YVHHQALLDVKNIAHQNKFGEDMP [HDAC6] shows protein stability index of 3 or more.
Found: Condition met

Lookup: Say whether ISSGLRGCMLIELALRGRLQLEAC [GOLPH3] shows protein stability index of 3 or more.
Found: Condition not met

Lookup: Say whether PAIIFEDANLDECIPATVRSSFAN [ALDH8A1] shows protein stability index of 3 or more.
Found: Condition met

Lookup: Say whether VTHTLTMRQRISRVEESALRALRE [PPEF2] shows protein stability index of 3 or more.
Found: Condition met

Lookup: Say whether GQVTPRGLRLRLPRRESLLRGLCR [C6orf223] shows protein stability index of 3 or more.
Found: Condition met

Lookup: Say whether LELLVNNGADVNIQSKDGKSPLHM [ANKRD44] shows protein stability index of 3 or more.
Found: Condition met

Lookup: Say whether PVDLNKILEDMRCQYEALVENNRR [KRT36] shows protein stability index of 3 or more.
Found: Condition met

Lookup: Say whether SDNILSPVMNGGVQTWTQPRLCYL [PDZK1] shows protein stability index of 3 or more.
Found: Condition not met

Lookup: Say whether ETTRNTTGIEESTDGMILGPEDLS [LARP4] shows protein stability index of 3 or more.
Found: Condition met

Lookup: Say whether EEAKGLLDKVKDGGYRPAEDKIFP [ZBED1] shows protein stability index of 3 or more.
Found: Condition met

Lookup: Say whether LKTSKMALSPSATAKRINRTSLSS [CDC14A] shows protein stability index of 3 or more.
Found: Condition met

Lookup: Say whether RRATSGGKWPQVLFFPEGTCSNKK [LPCAT4] shows protein stability index of 3 or more.
Found: Condition met

Lookup: Say whether TKGHPRAVSQPFRLSSSLQGSAVT [CDC14A] shows protein stability index of 3 or more.
Found: Condition met

Lookup: Say whether AARLLRALSSFREESRFCDAHLVL [GAN] shows protein stability index of 3 or more.
Found: Condition not met

Lookup: Say whether FALGLGFGGVIAFSSYNKQDNNCH [SLC6A17] shows protein stability index of 3 or more.
Found: Condition not met

Lookup: Say whether LALLLCAGQVTALPVNSPMNKGDT [CHGA] shows protein stability index of 3 or more.
Found: Condition not met

Lookup: Say whether AIVRKCRQKGTGKEYAAKFIKKRR [DAPK3] shows protein stability index of 3 or more.
Found: Condition met

Lookup: Say whether TASLIEDIDKKHLVLLRDGRTLIG [LSM1] shows protein stability index of 3 or more.
Found: Condition not met

Lookup: Say whether IGPNVLMVHKRSHTGERPFQCNQC [IKZF1] shows protein stability index of 3 or more.
Found: Condition met

Lookup: Say whether IQGADTIRCVYILDPWFAGSSNVG [CRY1] shows protein stability index of 3 or more.
Found: Condition not met

Lookup: Say whether KCLVTEAQTLLRLSGVQRVESVFF [RSAD1] shows protein stability index of 3 or more.
Found: Condition not met

Lookup: Say whether CIPATVRSSFANQGEICLCTSRIF [ALDH8A1] shows protein stability index of 3 or more.
Found: Condition not met

Lookup: Say whether MVRSVAWAGFMVLLMIPWGSAAKL [CHIT1] shows protein stability index of 3 or more.
Found: Condition not met

Lookup: Say whether YLYFLFCPTLIYRETYPRTPYVRW [SOAT2] shows protein stability index of 3 or more.
Found: Condition not met

Lookup: Say whether PGRSSVASPRRLSNVSSSGSINLL [MAP2] shows protein stability index of 3 or more.
Found: Condition met

Lookup: Say whether EDTTEEAQRRRMDEISDHAKVLTL [EIF5] shows protein stability index of 3 or more.
Found: Condition met

Lookup: Say whether WTAPLVMRTTNLDNRCKLFDSPSL [CDC25A] shows protein stability index of 3 or more.
Found: Condition not met

Lookup: Say whether TLVSRAHQLVMEGYNWCHDRNVVT [PPP2CA] shows protein stability index of 3 or more.
Found: Condition not met

Lookup: Say whether RITGLSPGRSALIVAVLCYINLLN [SPNS1] shows protein stability index of 3 or more.
Found: Condition not met

Lookup: Say whether GYNLTSISESMAACTRSLLGDPPP [HDAC6] shows protein stability index of 3 or more.
Found: Condition met

Lookup: Say whether NNIMKCRSRYDGHRIWMYNCHIGG [LOXL2] shows protein stability index of 3 or more.
Found: Condition not met

Lookup: Say whether VFPAPVVGSGGATSGKLLLEADEL [ZBTB22] shows protein stability index of 3 or more.
Found: Condition met

Lookup: Say whether AEGDSEGLSQGLVDREKGLSAEPG [CHGA] shows protein stability index of 3 or more.
Found: Condition met

Lookup: Say whether SDKDKAVGIFNTVINPMLNPIIYS [OR3A1] shows protein stability index of 3 or more.
Found: Condition not met

Lookup: Say whether AWLNYPCFKNWDGSPVSSWILLAE [OAS1] shows protein stability index of 3 or more.
Found: Condition not met

Lookup: Say whether FGIVEIDGMLYILGGEDGEKELIS [GAN] shows protein stability index of 3 or more.
Found: Condition not met

Lookup: Say whether KVRPSHKRCIVILREIPETTPIEE [LARP4] shows protein stability index of 3 or more.
Found: Condition not met

Lookup: Say whether TKLHDIDGVPHLILIASRDIAAGE [KMT5A] shows protein stability index of 3 or more.
Found: Condition not met

Lookup: Say whether NSSQSSSDGSCKTAGEMVFVYENA [BTBD10] shows protein stability index of 3 or more.
Found: Condition met

Lookup: Say whether YPQDLPRPLRSREFPQFEPQRYPA [TRAF3IP2] shows protein stability index of 3 or more.
Found: Condition met

Lookup: Say whether GRARFTTYEVRMRTNLPIFKLKES [SNX12] shows protein stability index of 3 or more.
Found: Condition not met

Lookup: Say whether IFYGSGIFNYMRLGSTKLSDKDKA [OR3A1] shows protein stability index of 3 or more.
Found: Condition not met
